# test.description: Cytotoxicity against human WI38 cells by MTT assay
# Type: cell-based, WI-38
# test.settings: Homo sapiens, WI-38; read-out: IC50
value.kind: pIC50
A value of pIC50 is the negative decimal logarithm of a concentration given in moles per litre.

Sample records with pIC50:
[
  {
    "molecule.smiles": "C=C[C@H]1CN2CC[C@H]1C[C@H]2[C@H](O)c1cc(CC[C@@H](C)[C@H]2CC[C@H]3[C@@H]4C[C@H](OC(C)=O)[C@@H]5C[C@H](OC(C)=O)CC[C@]5(C)[C@H]4CC[C@]23C)nc2ccc(OC)cc12",
    "pIC50": 5.23
  },
  {
    "molecule.smiles": "C=C[C@H]1CN2CC[C@H]1C[C@@H]2[C@@H](O)c1cc(CC[C@@H](C)[C@H]2CC[C@H]3[C@@H]4C[C@H](O)[C@@H]5C[C@H](O)CC[C@]5(C)[C@H]4CC[C@]23C)nc2ccccc12",
    "pIC50": 5.26
  },
  {
    "molecule.smiles": "C=C[C@H]1CN2CC[C@H]1C[C@@H]2[C@@H](O)c1cc(CC[C@@H](C)[C@H]2CC[C@H]3[C@@H]4C[C@H](OC(C)=O)[C@@H]5C[C@H](OC(C)=O)CC[C@]5(C)[C@H]4CC[C@]23C)nc2ccccc12",
    "pIC50": 5.37
  }
]

Problem: May I ask what pIC50 has been recorded for C=C[C@H]1CN2CC[C@H]1C[C@@H]2[C@@H](O)c1cc(CC[C@@H](C)[C@H]2CC[C@H]3[C@@H]4CC[C@@H]5C[C@H](O)CC[C@]5(C)[C@H]4C[C@H](O)[C@]23C)nc2ccc(OC)cc12 ?
Result: 5.37
